# Target Desc: Luciferin 4-monooxygenase (Photinus pyralis) (UniProt P08659)
# Sequence (P08659 whole entry, looked up): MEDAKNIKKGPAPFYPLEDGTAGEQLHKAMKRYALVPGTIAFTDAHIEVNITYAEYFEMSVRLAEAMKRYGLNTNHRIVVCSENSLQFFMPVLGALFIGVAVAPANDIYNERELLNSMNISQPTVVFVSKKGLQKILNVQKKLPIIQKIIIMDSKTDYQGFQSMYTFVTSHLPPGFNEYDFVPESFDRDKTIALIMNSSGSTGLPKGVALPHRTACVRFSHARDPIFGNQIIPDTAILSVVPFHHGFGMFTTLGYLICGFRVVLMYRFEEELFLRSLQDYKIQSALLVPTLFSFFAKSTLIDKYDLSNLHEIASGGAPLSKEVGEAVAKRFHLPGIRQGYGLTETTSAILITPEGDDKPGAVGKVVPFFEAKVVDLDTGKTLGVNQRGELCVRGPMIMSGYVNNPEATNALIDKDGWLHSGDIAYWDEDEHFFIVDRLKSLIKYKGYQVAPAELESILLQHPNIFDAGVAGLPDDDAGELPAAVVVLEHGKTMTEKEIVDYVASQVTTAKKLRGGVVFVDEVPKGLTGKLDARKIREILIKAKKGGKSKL
# Assay Info: qHTS profiling assay for firefly luciferase inhibitor/activator using purifed enzyme and Km concentrations of substrates (counterscreen for miR-21 project); also: nearly all actives have a fitted effect of over 55% in size
# Details: purified FLuc, luminescence inhibition; series mostly up to 57.5 µM
In all, about 360,000 compounds went through this assay and about 25,000 (6.9%) were called active. Roughly 9% stayed inconclusive and do not appear here. Calls follow the shape of the dose curve; as a rule, active = well fitted inhibition curve with a large enough effect; inconclusive = small, poorly fitted or top-dose-only effect; inactive = flat fitted curve, though single readings scatter. Only a selection was taken, and actives are over-represented in it overall.
// classify into true for active, false for inactive

[Q] What call does the record list for CN(C)c1cccc(C(=O)Nc2nc3ccc(S(=O)(=O)NC(C)(C)C)cc3s2)c1 ?
[A] false

[Q] Let us now turn to CS(=O)(=O)c1ccc2nc(NC(=O)c3ccc(Cl)nc3)sc2c1
[A] true

[Q] Let us now turn to Cc1nc(-c2ccccc2)sc1-c1nc(-c2ccccc2)ncc1S(=O)(=O)c1ccccc1
[A] false

[Q] Let us now turn to COc1cccc(C(=O)NNS(=O)(=O)c2ccc(F)cc2)c1
[A] false

[Q] Let us now turn to O=C(Nc1nnc(C2CC2)s1)c1ccccn1
[A] true

[Q] Let us now turn to Cc1cccc(NC(=O)CSCC(=O)Nc2nnc(C3CC3)s2)c1
[A] false

[Q] Let us now turn to CCc1ccc(S(=O)(=O)c2nnn3c2nc(N2CCN(CC)CC2)c2sccc23)cc1
[A] false

[Q] Let us now turn to CS(=O)(=O)c1ccc2nc(NC(=O)C3C4C=CC(C4)C3C(=O)O)sc2c1 (stereo not drawn)
[A] false

[Q] Let us now turn to c1ccc(CSCCc2ccncc2)cc1
[A] false

[Q] Let us now turn to CC(C)(C)c1ccc(SCCc2ccncc2)cc1
[A] true

[Q] Let us now turn to Cc1csc(NC(=S)Nc2cccc(Cl)c2)n1
[A] true

[Q] Let us now turn to CCOC(=O)C1=C(c2ccccc2)N=C2SCC(=O)N2C1c1ccc(O)c(OC)c1 (stereo not drawn)
[A] false

[Q] Let us now turn to O=C(Nc1ccccc1F)C(c1ccccc1)N1Cc2ccccc2C1=O (stereo not drawn)
[A] false

[Q] Let us now turn to COc1ccccc1C(=O)NC(CCSC)C(=O)N1CCN(C(C)=O)CC1 (stereo not drawn)
[A] false

[Q] Let us now turn to Cc1cc(C(=O)Nc2nnc(C3CC3)s2)c(C)s1
[A] true

[Q] Let us now turn to Cc1ccc(-c2csc(NC3OC(=O)c4ccccc43)n2)cc1 (stereo not drawn)
[A] false

[Q] Let us now turn to COC(=O)c1ccc(C)c(NC(=O)C2CC(=O)N(C3CCCC(C)C3C)C2)c1 (stereo not drawn)
[A] false

[Q] Let us now turn to COc1ccc2c(c1OC)C(=O)OC2Nc1nc(-c2ccccc2)cs1 (stereo not drawn)
[A] false

[Q] Let us now turn to O=C(NCCCc1ccccc1)c1ccc2c(c1)sc1nc(-c3ccc(F)cc3)cn12
[A] false

[Q] Let us now turn to Cc1ccc(C(C)C)c(OCCSc2nc3ccccc3n2CC(=O)O)c1
[A] false

[Q] Let us now turn to COc1ccccc1-c1nnc(C2CCN(C(=O)c3ccc(Cl)cc3)CC2)o1
[A] false

[Q] Let us now turn to CCc1cccc(CC)c1NC(=O)Cn1c(=O)c(-c2cc(C)ccc2NC(C)=O)nc2ccccc21
[A] false

[Q] Let us now turn to Cc1cc(C)c(SCCc2ccncc2)c(C)c1
[A] false
